Each entry below carries its recorded Inhibition of IP stimulation by 10nM Agonist: % Inhibition of Max.
- target_under_test: human gpr-54 receptor (human, UniProt Q969F8 1-398)
- Sequence (Q969F8 whole entry): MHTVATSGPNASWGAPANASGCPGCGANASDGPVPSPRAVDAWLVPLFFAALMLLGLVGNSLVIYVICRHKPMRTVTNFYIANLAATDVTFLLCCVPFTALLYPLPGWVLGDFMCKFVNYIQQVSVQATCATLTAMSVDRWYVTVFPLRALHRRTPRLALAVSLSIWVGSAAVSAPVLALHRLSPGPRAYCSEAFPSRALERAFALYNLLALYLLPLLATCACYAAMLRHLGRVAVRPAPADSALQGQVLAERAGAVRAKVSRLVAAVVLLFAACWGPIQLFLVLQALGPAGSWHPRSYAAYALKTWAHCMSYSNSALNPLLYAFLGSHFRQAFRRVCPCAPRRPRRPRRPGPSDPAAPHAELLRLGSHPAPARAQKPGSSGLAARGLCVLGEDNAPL
- assay_remarks: cell-based or functional assay
Non-standard residues stand in square brackets, D forms with d.
The answer is to be given in %; state only the numeric part.

These solved cases illustrate the format of a correct answer.
• Ac-[dA]NWN[dP]FG[dW]RF-NH2 (SMILES CC(=O)N[C@H](C)C(=O)N[C@@H](CC(N)=O)C(=O)N[C@@H](Cc1c[nH]c2ccccc12)C(=O)N[C@@H](CC(N)=O)C(=O)N1CCC[C@@H]1C(=O)N[C@@H](Cc1ccccc1)C(=O)NCC(=O)N[C@H](Cc1c[nH]c2ccccc12)C(=O)N[C@@H](CCCNC(=N)N)C(=O)N[C@@H](Cc1ccccc1)C(N)=O) [275] = 44
• Ac-YN[dW]NGFG[dW]RF-NH2 (SMILES CC(=O)N[C@@H](Cc1ccc(O)cc1)C(=O)N[C@@H](CC(N)=O)C(=O)N[C@H](Cc1c[nH]c2ccccc12)C(=O)N[C@@H](CC(N)=O)C(=O)NCC(=O)N[C@@H](Cc1ccccc1)C(=O)NCC(=O)N[C@H](Cc1c[nH]c2ccccc12)C(=O)N[C@@H](CCCNC(=N)N)C(=O)N[C@@H](Cc1ccccc1)C(N)=O, kisspeptin-10 analogue; also called acYN[(D)-W]NGFG[(D)-W]RF) [231] = 55

Entry Ac-[dY]NWNGFGWRF-NH2 (SMILES CC(=O)N[C@H](Cc1ccc(O)cc1)C(=O)N[C@@H](CC(N)=O)C(=O)N[C@@H](Cc1c[nH]c2ccccc12)C(=O)N[C@@H](CC(N)=O)C(=O)NCC(=O)N[C@@H](Cc1ccccc1)C(=O)NCC(=O)N[C@@H](Cc1c[nH]c2ccccc12)C(=O)N[C@@H](CCCNC(=N)N)C(=O)N[C@@H](Cc1ccccc1)C(N)=O) [237] : reported Inhibition of IP stimulation by 10nM Agonist: % Inhibition of Max = ?
0
